# testSummary: protein stability index of a GFP-peptide fusion (yeast GPS) (PSI 1-4); higher = more stable; sorted into four equal gates, so the index is relative within each strain
# conditionLabel: ubr1∆
recordedEndpoint: protein stability index
Give bare numbers.

Hey, can you go through the list below and give me protein stability index for every item?
1. LTQEELERIVQIMQNPT [RPS18A]
2. REISNFSKGDADVLVDR [SRP72]
3. ELTQVPSARQKYMVKGG [UBP6]
4. LGKCSRITDASLFQLSK [GRR1]
5. EMVENSSENNQIILAYI [SRP68]
6. QEIFDANVQRLKEYQSK [RPL13A]
7. KLILHAIHIFESYYNWK [YML103C/NUP188]

1: 2.75; 2: 3.06; 3: 2.96; 4: 2.88; 5: 3.35; 6: 3.27; 7: 1.82

---

# testSummary: protein stability index of a GFP-peptide fusion (yeast GPS) (PSI 1-4); higher = more stable; sorted into four equal gates, so the index is relative within each strain
# conditionLabel: san1∆
recordedEndpoint: protein stability index
Give bare numbers.

Example entries and their recorded answers appear below.
SMGSILLSFVLGVVFGR [YML031W/NDC1] | 2.56
IGQAVQPKRNLSRYVKW [RPL8A] | 2.72
IVGPDLAVLALVIVKKG [RPS6A] | 1.19
DALLNSTTEHINIDDLL [YJL039C/NUP192] | 2.59
GKTSFFQALGVPTKIAR [RPP0] | 2.98
LVQLPKSAMDTFKSVSK [POP3] | 2.75

Parameter requested: protein stability index. Apply to each item below.
1. LQGEVENIAQMKPKAEK [SMC4]
2. FQFKLLQSNSKLASTLE [SMC4]
3. WLVVPTIYNLQHHVTDA [YML031W/NDC1]
4. SDSLDIAQGIDLVRDID [SRP72]
5. ESTAGSASTSATGISGS [ECM29]
6. KNKDSLVSNPHEIYGSM [SRB4]
7. YLTGGQQPTASDNIASL [SMD1]

1. 3.19
2. 2.42
3. 1.46
4. 3.09
5. 3.12
6. 2.96
7. 3.04

// batch mode: one protein stability index value per listed entry
1. GQGAFGNMCRGGRMFAP [RPL4A]
2. ESDGRMFIEEPTRMVRV [SRP54]

3.23
2.83

Fill in protein stability index for each of the 5 sequences listed.
1. VRNKSYPVYTRLRTLCR [DIS3]
2. DKLSVSEISDGKLKRCS [SIN4]
3. GGSSDTADKIRIHAKNF [GAL11]
4. SSKAATPDTKNFFHAKK [SNF12]
5. GLKFASFIFQYYGLVID [PRP8]

[3.06, 3.15, 1.42, 2.99, 1.14]

For each entry beneath this line, provide reported protein stability index.
1. DDFTNELKAELDRYKRE [SEM1]
2. GSIFTHETTFMTAMRLM [YML031W/NDC1]
3. PDRHVIFLAERRILPKP [RPS7B]
4. NKAQAKMDKRAKTSDSA [RPL8B]
5. TPVQPDLSVTPQKSSSK [YAR002W/NUP60]
6. AVKDQQKYTKEMIDSHI [SNF2]
7. GQSINDSLKKLLPQWDD [ARP9]

2.97
2.71
2.99
3.27
3.06
2.38
2.74

Give measured protein stability index for every item shown.
1. RGPYLVIVPLSTLSNWS [SNF2]
2. SALEQAIIYQRGKDGKL [YGL100W/SEH1]

1. 2.17
2. 3.15

Specify reported protein stability index for the sequence shown: SNMLGSNEDVMMTGAEQ [RPB3]
3.26

---

# testSummary: protein stability index of a GFP-peptide fusion (yeast GPS) (PSI 1-4); higher = more stable; sorted into four equal gates, so the index is relative within each strain
# conditionLabel: pdr5∆
recordedEndpoint: protein stability index
Answers are plain numbers.

# annotated cases, reported protein stability index shown
DRRAQRVAEKRDALLKE [RPL19A] | 3.25
LLSDTFEVLAPKWERVF [RRI2] | 2.48

Batch request: protein stability index per item, same order as input.
1. FGGSQPNSGTATTGGFG [YGR119C/NUP57]
2. KAKFTSLAVRSLQDRSS [YCS4]
3. MKYAVSKTSENKVSNTV [SIR2]
4. IDNLKDTLKENATEVQK [ITC1]
5. ESSFIEIDDTEAEVTAE [BRR2]

[3.05, 2.3, 3.16, 2.87, 3.1]

---

# testSummary: protein stability index of a GFP-peptide fusion (yeast GPS) (PSI 1-4); higher = more stable; sorted into four equal gates, so the index is relative within each strain
# conditionLabel: doa10∆
recordedEndpoint: protein stability index
Answers are plain numbers.

PAQKDSSVVSEPKKPSF [YOR098C/NUP1] | 2.94

I would be grateful if you could provide protein stability index for each of the following entries.
1. YGGSRCANCVKERIVRA [RPL34B]
2. NKTNNEDLFDDYPSTSL [NUT1]
3. LAPTQLSAEYLVILKPD [SIN4]
4. PTQITQYTQRLSKLEKA [SRP68]
5. KLILHAIHIFESYYNWK [YML103C/NUP188]
6. LANFVAKGFYHTPMVNF [SRB8]
7. NDNNSPHTPVTRKGYIP [YLR018C/POM34]
8. LSLVYEIGGSDLKESMV [ECM29]

1. 3.36
2. 2.22
3. 2.31
4. 1.75
5. 1.57
6. 2.57
7. 3.1
8. 2.98

---

Give measured protein stability index for each item. Keep answers brief.
# testSummary: protein stability index of a GFP-peptide fusion (yeast GPS) (PSI 1-4); higher = more stable; sorted into four equal gates, so the index is relative within each strain
# conditionLabel: san1∆
One number for each entry.

EPKKDKESIVLPTVGFD [YOR098C/NUP1] | 3.11
LEQKIHEVEEILNELQP [SMC1] | 2.99
MAGLSFDNYQRNNFLAE [PUP1] | 3.29
HSVQETNKISPKDFSPN [SSN2] | 2.93
YNGFIDIFSNLSSDDLL [YCS4] | 3.28
RLIVDPNIADYITAKNN [PRP8] | 2.36
GFGLVYNSVAEAKKFEP [RPS24A] | 2.87
YWVPDWDGVIPTPAIIK [RPO21] | 2.8
HLPCTIEAEEAEEIGVE [RPN8] | 2.59
DTAGEESQQQDESLKDE [SWI3] | 3.13

# batch size: 5; output protein stability index per entry
1. ESMSYLPDPILKNFLSY [MCD1]
2. NKKLIKKLSKKYNAFIA [RPL1A]
3. ELLKLLNDEYNYPQLTE [YCS4]
4. EAESQLRAAQQQWGNDF [FAS2]
5. ELADLPKLKRIGLVKCT [GRR1]

1. 2.5
2. 1.45
3. 3.03
4. 3.07
5. 2.28

---

# testSummary: protein stability index of a GFP-peptide fusion (yeast GPS) (PSI 1-4); higher = more stable; sorted into four equal gates, so the index is relative within each strain
# conditionLabel: ubr1∆
Give protein stability index for every item shown.

Sample records with protein stability index:
YDKKKRVVVPQALRVLR [RPL16B] | 1.82
LVDSLATFTSIELTSYE [RPN7] | 1.72
NVQLRDVIATEPQGAVT [SMD3] | 2.67
SWASEGISKKTRIAGVV [RPS8A] | 2.03
RLDNLQDIKKAKRVENF [DSN1] | 2.56
FLGALKYLPHAILKLLE [PRP8] | 2.16
DSTIGNSKVDMKYDIFA [IRR1] | 2.88
ETGNFSWASEGISKKTR [RPS8A] | 3.23
LENATWTMRIEGRLLDN [SNF12] | 2.92
TIPLGGSVHKLPYAIAG [PRE3] | 3.08

// input: 8 sequences below; output: protein stability index for each
1. SDELHNQSTIYEDEELS [LIN1]
2. FNYGKLPLPPSVEWMKV [SIN4]
3. FSKAIEWDMLNVEEEQI [BRR2]
4. SSNASFNNQGKLDLFKY [MED1]
5. LTKFRQKLMQLVVLTDV [RGR1]
6. GDVGKNHITEFPSIPLP [RPC31]
7. VSEGTRAVTKYSSSTQA [HTB1]
8. PTSPAYSPTSPSYSPTS [RPO21]

2.97
2.92
2.93
3.04
1.13
3.22
3.02
2.9

Dear colleague, could you please provide protein stability index for the sequences listed below?
1. RAQVLSLGDGTNYYLTT [CSL4]
2. WLVVPTIYNLQHHVTDA [YML031W/NDC1]
3. GYTQHGGLRPFGVSFIY [PRE9]
4. NQIADLSGKFSTIPTRE [ROX3]
5. SNSANVSSPESEKNKRQ [ITC1]
6. SKALNSILESSMFLRID [RGR1]
7. DLKKFTSTITKYKQLLL [RPN3]
8. AILKLLENMPHPWEQAK [PRP8]

[3.08, 1.37, 1.65, 3.23, 3.09, 2.83, 3.07, 2.16]

List the reported protein stability index of each sequence below.
1. QSRLFINELVLENFKSY [SMC4]
2. QLLIIEKEWENAIRIGE [SRP72]

2.27
2.21

src = the supplement of paper PMC9732359
